Would you mind telling me the reported AC50 of each entry?

Find AC50 (Cytochrome P450 1A2 (Homo sapiens)) for the entry `O=C1CS[C@@H](c2ccccc2Cl)c2cc(Cl)ccc2N1`
39.8 µM (inconclusive)

Observed AC50 on Cytochrome P450 1A2 (Homo sapiens) for `CNc1nc(NCCOC23CC4CC(CC(C4)C2)C3)nc(OCC(F)(F)F)n1` , please.
Sequence (P05177 whole entry): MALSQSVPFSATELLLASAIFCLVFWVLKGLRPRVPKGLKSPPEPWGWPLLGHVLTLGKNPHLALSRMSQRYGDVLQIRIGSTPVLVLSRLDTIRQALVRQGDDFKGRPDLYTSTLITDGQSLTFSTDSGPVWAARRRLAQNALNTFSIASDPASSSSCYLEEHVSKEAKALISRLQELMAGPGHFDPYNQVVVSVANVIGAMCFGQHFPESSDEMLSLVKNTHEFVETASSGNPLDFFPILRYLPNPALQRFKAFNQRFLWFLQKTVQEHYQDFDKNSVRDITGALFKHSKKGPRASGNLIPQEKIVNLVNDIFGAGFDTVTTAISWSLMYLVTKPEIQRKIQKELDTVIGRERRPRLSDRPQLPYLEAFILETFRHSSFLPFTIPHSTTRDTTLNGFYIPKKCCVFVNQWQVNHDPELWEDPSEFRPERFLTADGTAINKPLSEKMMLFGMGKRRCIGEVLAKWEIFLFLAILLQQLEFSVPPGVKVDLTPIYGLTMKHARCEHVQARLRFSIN
12.6 µM (inconclusive)

Reported AC50 for Cytochrome P450 1A2 (Homo sapiens), given `CCCCOc1ccc(C(=O)N/C(=C\c2ccc(OC)cc2)C(=O)OCc2ccco2)cc1` ?
14.1 µM (inconclusive)

Param readout= AC50; system= Cytochrome P450 1A2 (Homo sapiens); entry= `Cn1c2c(c(=O)n(C)c1=O)C(C(F)(F)F)(C(F)(F)F)NC(c1ccc(Cl)cc1)=N2` ; returns value.
17.8 µM (inconclusive)

Item `COc1ccc(Cn2c(SCc3ccccc3C)nc3cc(OC)c(OC)cc3c2=N)cc1` with Cytochrome P450 1A2 (Homo sapiens) - AC50?
15.8 µM (inconclusive)

I'm curious: which AC50 was measured for `C[C@@H](C(=O)NCc1ccc(S(C)(=O)=O)cc1)[C@H]1C[C@]1(C)[C@H](NC(=O)OCc1ccccc1)c1ccccc1` tested on Cytochrome P450 1A2 (Homo sapiens)?
12.6 µM (inconclusive)

// map `COc1c(Cl)cc(Cl)cc1CNCCNCCO` to recorded AC50 (system: Cytochrome P450 1A2 (Homo sapiens))
28.2 µM (inconclusive)

I'm curious: which AC50 was measured for `COc1ccc(-c2nc3cnc(N4CCNCC4)nc3n(Cc3cccc(OC)c3)c2=O)cc1` tested on Cytochrome P450 1A2 (Homo sapiens)?;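 note: PubChem cytochrome P450 panel assay, CYP1A2 panel member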
31.6 µM (inconclusive)
